Below are molecules with their pKi as measured on A. fumigatus CYP51A (Aspergillus fumigatus).
Sequence (Q4WNT5 whole entry): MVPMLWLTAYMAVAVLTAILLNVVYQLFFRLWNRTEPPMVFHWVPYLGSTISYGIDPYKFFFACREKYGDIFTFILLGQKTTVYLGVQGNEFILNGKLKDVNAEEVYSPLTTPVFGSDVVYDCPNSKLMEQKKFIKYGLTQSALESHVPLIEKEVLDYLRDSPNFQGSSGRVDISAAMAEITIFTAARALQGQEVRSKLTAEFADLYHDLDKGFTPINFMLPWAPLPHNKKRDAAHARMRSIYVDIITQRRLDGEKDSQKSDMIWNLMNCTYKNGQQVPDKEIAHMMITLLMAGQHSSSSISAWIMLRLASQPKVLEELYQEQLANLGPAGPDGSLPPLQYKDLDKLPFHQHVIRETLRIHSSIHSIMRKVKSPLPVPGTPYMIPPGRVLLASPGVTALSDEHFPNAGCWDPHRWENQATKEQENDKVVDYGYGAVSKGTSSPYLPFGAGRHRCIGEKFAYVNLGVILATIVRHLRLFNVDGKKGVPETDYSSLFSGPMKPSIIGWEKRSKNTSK
pKi: −log10 of the molar value.

Structure Notation | pKi
CC[C@@H]([C@H](C)O)n1ncn(-c2ccc(N3CCN(c4ccc(OC[C@@H]5CO[C@@](Cn6cncn6)(c6ccc(F)cc6F)C5)cc4)CC3)cc2)c1=O | > 9.00
Cc1cc(N2CCN(c3ccc(C(=O)N[C@H]4CCCC[C@@H]4O)cc3)CC2)ccc1OC[C@@H]1CO[C@@](Cn2cncn2)(c2ccc(F)cc2F)C1 | > 9.00

* * *

target: A. fumigatus CYP51B (Aspergillus fumigatus, UniProt E9QY26); test: CYP51 reconstitution assay (sterol 14α-demethylase inhibition)
Sequence (E9QY26 whole entry): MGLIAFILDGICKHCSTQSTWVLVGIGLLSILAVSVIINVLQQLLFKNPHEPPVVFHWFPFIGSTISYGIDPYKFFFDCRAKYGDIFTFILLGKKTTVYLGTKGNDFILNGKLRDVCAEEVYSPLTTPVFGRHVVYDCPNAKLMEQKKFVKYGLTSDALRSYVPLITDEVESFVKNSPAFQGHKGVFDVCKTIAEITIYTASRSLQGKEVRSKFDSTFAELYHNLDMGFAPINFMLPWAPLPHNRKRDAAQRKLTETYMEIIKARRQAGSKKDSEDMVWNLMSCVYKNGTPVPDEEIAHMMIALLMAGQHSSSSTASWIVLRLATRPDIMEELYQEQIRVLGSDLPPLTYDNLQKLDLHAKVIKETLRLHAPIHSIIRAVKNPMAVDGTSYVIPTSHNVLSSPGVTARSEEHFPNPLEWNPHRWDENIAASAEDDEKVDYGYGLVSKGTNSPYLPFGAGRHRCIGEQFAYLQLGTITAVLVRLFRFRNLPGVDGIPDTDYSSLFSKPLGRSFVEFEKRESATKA
pIC50: −log10 of the molar value.
Recorded Metric: pIC50

Molecule | Recorded Metric | Result
Cc1cc(N2CCN(c3ccc(C(=O)N[C@H]4CCCC[C@@H]4O)cc3)CC2)ccc1OC[C@@H]1CO[C@@](Cn2cncn2)(c2ccc(F)cc2F)C1 [PC1244] | pIC50 | 6.64

* * *

system: A. fumigatus AF91; assay: EUCAST broth microdilution growth inhibition (OD 530 nm, 384-well); type: cell-based; conditions: Aspergillus fumigatus, strain AF91 (ITC-resistant), 48 h
Below: a set of entries, each annotated with reported IC90.

Compound | Relation Sign | IC90, µg/mL
CC[C@H](C)C[C@H](C)CCCCCCCCC(=O)N[C@H]1C[C@@H](O)[C@@H](NCCN)NC(=O)[C@@H]2[C@@H](O)CCN2C(=O)[C@H]([C@H](O)CCN)NC(=O)[C@H]([C@H](O)[C@@H](O)c2ccc(O)cc2)NC(=O)[C@@H]2C[C@@H](O)CN2C(=O)[C@H]([C@@H](C)O)NC1=O | > | 1
CCC(C)n1ncn(-c2ccc(N3CCN(c4ccc(OCC5COC(Cn6cncn6)(c6ccc(Cl)cc6Cl)O5)cc4)CC3)cc2)c1=O (stereo not drawn) | > | 1
C[C@@H]1[C@H](O)[C@@H](C)/C=C/C=C/C=C/C=C/C=C/C=C/C=C/[C@H](O[C@@H]2O[C@H](C)[C@@H](O)[C@H](N)[C@@H]2O)C[C@@H]2O[C@](O)(C[C@@H](O)C[C@@H](O)[C@H](O)CC[C@@H](O)C[C@@H](O)CC(=O)O[C@H]1C)C[C@H](O)[C@H]2C(=O)O | = | 0.75
CC[C@@H]([C@H](C)O)n1ncn(-c2ccc(N3CCN(c4ccc(OC[C@@H]5CO[C@@](Cn6cncn6)(c6ccc(F)cc6F)C5)cc4)CC3)cc2)c1=O | = | 0.049
C[C@@H](c1ncncc1F)[C@](O)(Cn1cncn1)c1ccc(F)cc1F | = | 0.28
Cc1cc(N2CCN(c3ccc(C(=O)N[C@H]4CCCC[C@@H]4O)cc3)CC2)ccc1OC[C@@H]1CO[C@@](Cn2cncn2)(c2ccc(F)cc2F)C1 | = | 0.024
